target: Induced myeloid leukemia cell differentiation protein Mcl-1 (Homo sapiens); test: Mcl-1/Noxa binding inhibitor potency, dose response, biochemical, TR-FRET (AID 1417); conditions: Mcl-1/Noxa peptide interaction, cell-free TR-FRET (terbium/rhodamine), 2 h; measured here: absolute IC50
pIC50: −log10 of the molar value.
Below, each of the molecules is paired with its reported pIC50 value.

| molecule | pIC50 |
| --- | --- |
| COc1ccc2c(c1)CC/C(=C\Nc1ccc3c(c1)OCO3)C2=O | < 4.27 |
| CCC1CSC(Nc2ccc(C(=O)/C=C/c3cccc(C)c3)cc2)=N1 (stereo not given) | > 6.40 |
| Nc1ccc(N2CCCCC2)cc1N1CCCCC1 | < 4.27 |
| CC(/C=C1\SC(=S)N(CCCC(=O)Nc2ccc(C(=O)O)c(O)c2)C1=O)=C\c1ccccc1 | > 6.40 |
| O=Cc1[nH]c2ccccc2c1N(C(=O)CCl)c1ccc([N+](=O)[O-])cc1 | < 4.27 |
| COc1ccc(OC)c2c1C(=O)C(Cl)=C(Cl)C2=O | > 6.40 |
| Cc1ccc(C(=O)Nc2ccc(N3CCCC3)cc2)cc1 | < 4.27 |
| COc1ccc2nc(Nc3sc4c(c3C(N)=O)CCCC4)sc2c1 | > 6.40 |
| O=C(Nc1nccs1)c1cccc(N2C(=O)c3cccc4c([N+](=O)[O-])ccc(c34)C2=O)c1 | < 4.27 |
| Cc1ccc(-n2nc(C)cc2NC(=O)COc2cc(C)cc3oc(=O)c4c(c23)CCC4)cc1 | < 4.27 |
| O=c1c2ccccc2nc(-c2ccco2)n1-c1cccnc1 | < 4.27 |
| COc1ccc(C(c2c(O)cc(C)oc2=O)c2c(O)cc(C)oc2=O)cc1 | < 4.27 |
| CC(=O)Oc1ccc(NC(=O)CSc2ccccc2)cc1 | < 4.27 |
| O=C(Nc1ccccc1Cl)c1cnccn1 | < 4.27 |
| CCn1c(C)nc2cc(C(=O)N/N=C/c3ccc(O)c(O)c3O)ccc21 | > 6.40 |
